branches per spheroid, MLP29 cells, 12.5 nM values, listed per item
# study-target: native mouse MET on living cells (mouse, UniProt P16056 25-1379)
# assay-overview: cell-based or functional assay
readout-type: branches per spheroid, MLP29 cells, 12.5 nM

binder	observed-result
71G2 chimeric llama-human IgG1 mAb (antibody, V domains shown, llama VH on human IgG1 CH1-CH2-CH3, llama VL on human lambda CL) VH: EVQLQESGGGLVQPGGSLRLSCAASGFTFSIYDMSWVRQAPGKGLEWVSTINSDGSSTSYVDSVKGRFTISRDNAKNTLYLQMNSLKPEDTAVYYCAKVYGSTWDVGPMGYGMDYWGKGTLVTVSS VL: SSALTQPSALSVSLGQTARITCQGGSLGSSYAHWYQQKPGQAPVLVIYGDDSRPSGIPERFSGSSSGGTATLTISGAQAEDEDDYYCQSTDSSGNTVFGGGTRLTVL	45 branches
71A3 chimeric llama-human IgG1 mAb (antibody, V domains shown, llama VH on human IgG1 CH1-CH2-CH3, llama VL on human lambda CL) VH: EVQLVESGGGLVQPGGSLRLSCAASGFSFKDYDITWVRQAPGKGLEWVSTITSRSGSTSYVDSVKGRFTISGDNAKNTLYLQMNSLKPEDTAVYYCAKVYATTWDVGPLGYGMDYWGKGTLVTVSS VL: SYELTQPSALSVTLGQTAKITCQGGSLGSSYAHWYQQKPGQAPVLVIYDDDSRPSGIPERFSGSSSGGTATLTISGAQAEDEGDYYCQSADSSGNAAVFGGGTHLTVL	42.7 branches
